B1: mRNA-splicing (parent)
chain: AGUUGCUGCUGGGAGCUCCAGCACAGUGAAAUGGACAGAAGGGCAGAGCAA

Variants of: B1
Assay: exon inclusion enrichment index; higher = more inclusion; WT1 exon 5 minigene, HEK293
property: exon inclusion enrichment index
Answers are plain numbers.

Guide cases for exon inclusion enrichment index, answers given:
G5C C6A U7C G8A U10A G28U A29C	0.0517
G5C C6A U7C G8A U10A C18A C19A	0.0025
G5A C6U U7A G8U C9A G15A C16A	0.0139

For every item below, please supply its exon inclusion enrichment index.
1. G5A U7C G8A U10C G34U A35G
2. G5C C6U G8C C9U U10C C22G A23U
3. G5C C6G U7C G8A C9U U10C
4. G5A U7C G8A U10C A39G A40U

## Output
1: 0.753; 2: 0.248; 3: 3.11; 4: 0.283

For every item below, please supply its exon inclusion enrichment index.
1. G5A U7C G8A U10C G28C A29C
2. G5A C6G U7G C9A U27G G28U

## Output
[1.72, 0.0007]

For every item below, please supply its exon inclusion enrichment index.
1. G5C C6A U7C G8A U10A A14C G15A
2. G13U A14G
3. G5U G8U C9U A14U
4. G5C C6U G8C C9U U10C G33A G34A
5. C6A U7A C9A U10A A20C G21U

## Output
0.0306
0.0891
0.0126
0.246
0.286

The origin of these recorded values is the RNAGym collection of RNA variant scans (doi:10.1101/gr.219683.116).
